test description: In vivo toxicity in KM mouse assessed as survival rate at 10 mg/kg, sc relative to control
Type: organism-based
measured metric: survival

{"smiles repr": "CCN(CC)CCCCCCCCCCCCOc1ccc2ccc(=O)oc2c1", "measured metric": "survival", "assay value": "100%"}

----------
Parameter: MIC. Scope: all listed entries.
Tested on: Enterococcus faecalis
test description: Antibacterial activity against clinically isolated Enterococcus faecalis ATCC29212 assessed as inhibition of bacterial growth measured after 16 to 24 hrs by broth microdilution method
Type: functional
test settings: time 16-24 hrs, read-out: MIC100

{"smiles repr": "CCN(CC)CCCCCCCCCCCCOc1cc(=O)oc2ccccc12", "MIC, µg/mL": 4}
{"smiles repr": "CN[C@H](CC(C)C)C(=O)N[C@H]1C(=O)N[C@@H](CC(N)=O)C(=O)N[C@H]2C(=O)N[C@H]3C(=O)N[C@H](C(=O)N[C@H](C(=O)O)c4cc(O)cc(O)c4-c4cc3ccc4O)[C@H](O)c3ccc(c(Cl)c3)Oc3cc2cc(c3O[C@@H]2O[C@H](CO)[C@@H](O)[C@H](O)[C@H]2O[C@H]2C[C@](C)(N)[C@H](O)[C@H](C)O2)Oc2ccc(cc2Cl)[C@H]1O", "MIC, µg/mL": 2}
